biological target: human CD28 (human, UniProt P10747 19-220); assay: cell-based or functional assay
measured attribute: DC-MLR Assay (EC50 nM)
# do not omit the unit; it follows the number

In the examples that follow, each entry is paired with its recorded DC-MLR Assay (EC50 nM).
- binder: "1h-239-891(S60C) 40K branched PEG (other, 40K branched PEG; engineered cysteine S60C) VL: DIQMTQSPSSLSASVGDRVTITCRASRPIWPFLEWYQQKPGKAPKLLIYFTSRLRHGVPCRFSGSGSGTDFTLTISSLQPEDFATYYCLQNVANPATFSQGTKVEIKR"
  DC-MLR Assay (EC50 nM): "1.2 nM"
- binder: "1h-239-8 (other) VL: DIQMTQSPSSLSASVGDRVTITCRASQSIYPFLEWYQQKPGKAPKLLIYFTSRLQSGVPSRFSGSGSGTDFTLTISSLQPEDFATYYCLQNVTNPATFSQGTKVEIKR"
  DC-MLR Assay (EC50 nM): "13 nM"
- binder: "1h-239-891 (other) VL: DIQMTQSPSSLSASVGDRVTITCRASRPIWPFLEWYQQKPGKAPKLLIYFTSRLRHGVPSRFSGSGSGTDFTLTISSLQPEDFATYYCLQNVANPATFSQGTKVEIKR"
  DC-MLR Assay (EC50 nM): "0.5 nM"
- binder: "1h-239-891(D70C) 30K linear PEG (other, 30 kDa linear PEG; engineered cysteine D70C) VL: DIQMTQSPSSLSASVGDRVTITCRASRPIWPFLEWYQQKPGKAPKLLIYFTSRLRHGVPSRFSGSGSGTCFTLTISSLQPEDFATYYCLQNVANPATFSQGTKVEIKR"
  DC-MLR Assay (EC50 nM): "1.2 nM"

Retrieve DC-MLR Assay (EC50 nM) measured for 1h-239-891(S9C) 40K branched PEG (other, 40K branched PEG; engineered cysteine S9C) VL: DIQMTQSPCSLSASVGDRVTITCRASRPIWPFLEWYQQKPGKAPKLLIYFTSRLRHGVPSRFSGSGSGTDFTLTISSLQPEDFATYYCLQNVANPATFSQGTKVEIKR and print it.
1.3 nM
